System: A549 cells
Assay Protocol: MTT anti-proliferation assay, A549
Format: cell-based, human
Recorded Conditions: Homo sapiens, A549, 24 h, average of three determinations
Metric Name: IC50

Examples with answers:
Molecule: COc1cc(C(=Cc2cc(C(F)(F)F)ccc2Cl)C(=O)O)cc(OC)c1OC [compound k]
Reported: > 100 µM

Molecule: COc1cc(C(=Cc2ccc(OC)c(OC)c2Cl)C(=O)O)cc(OC)c1OC [compound l]
Reported: > 100 µM

Molecule: COc1cc(C(=Cc2ccccc2C(F)(F)F)C(=O)O)cc(OC)c1OC [compound i]
Reported: 32 µM

Q: Note down IC50 recorded for COc1cc(C(=Cc2ccccc2OC(F)(F)F)C(=O)O)cc(OC)c1OC [compound e]
A: > 100 µM

----------
Assay Protocol: MTT cytotoxicity test, LO2
Type: cell-based, human
Recorded Conditions: human, LO2 cells (normal human hepatocytes), average of three determinations
Metric Name: CC50 at 24 h

Examples with answers:
Molecule: COc1cc(C(=Cc2cc(Cl)ccc2[N+](=O)[O-])C(=O)O)cc(OC)c1OC [compound m]
Reported: > 100 µM

Molecule: COc1ccc(C(=Cc2c(Cl)cccc2Cl)C(=O)O)cc1 [compound o]
Reported: > 100 µM

Consider the additional molecule presented here.
Q: Note down CC50 at 24 h recorded for COc1cc(C(=Cc2ccccc2C(F)(F)F)C(=O)O)cc(OC)c1OC [compound i]
A: > 100 µM

----------
Test system: HepG2 cells
Assay Protocol: MTT anti-proliferation assay, HepG2
Format: cell-based, human
Recorded Conditions: Homo sapiens, HepG2, 24 h, average of three determinations
Procedure: The 22 synthesized resveratrol compounds were evaluated for anti-proliferative activities against three human cancer cell lines, including HepG2, A549 and HeLa cells, using 3-[4,5-dimethylthiazol-2-yl]-2,5 diphenyl tetrazolium bromide (MTT) assays. Paclitaxel, a well-known tubulin inhibitor, was used as a positive control. […] The anti-proliferative and cytotoxicity activity was determined using MTT assay. […]
Listing: IC50 of selected compounds

Examples with answers:
Smiles Data: COc1cc(C(=Cc2ccc(OC)c(OC)c2Cl)C(=O)O)cc(OC)c1OC
IC50: > 100 µM

Smiles Data: COc1cc(C(=Cc2ccccc2OC(F)(F)F)C(=O)O)cc(OC)c1OC
IC50: > 100 µM

Q: Note down IC50 recorded for COc1ccc(C(=Cc2c(Cl)ccc(Cl)c2Cl)C(=O)O)cc1
A: > 100 µM

----------
Listing: IC50 of selected compounds
Test system: A549 cells
Assay Protocol: MTT anti-proliferation assay, A549
Format: cell-based, human
Recorded Conditions: Homo sapiens, A549, 24 h, average of three determinations

Examples with answers:
Smiles Data: COc1ccc(C(=Cc2c(Cl)ccc(Cl)c2Cl)C(=O)O)cc1
Reported: > 100 µM
//
Smiles Data: COc1ccc(C(=Cc2ccc(OC)c(OC)c2Cl)C(=O)O)cc1
Reported: > 100 µM

Consider the additional compound presented here.
Q: Note down IC50 recorded for COc1cc(C(=Cc2cc([N+](=O)[O-])ccc2Cl)C(=O)O)cc(OC)c1OC
A: > 100 µM

Value source: paper PMC6774960
